Reported Kd by item:
Target: T1, Intracellularly biotinylated Avi-His6-tev-DPP9 (UniProt Q86TI2 1-863, biotin (on the Avi tag))
T1 construct: dipeptidyl peptidase 9 (DPP9); also called biotin-DPP9; immobilized DPP9; source: Sf9 insect cells, intracellularly biotinylated, purified; not shown: Avi, N-terminal, kept; His6, N-terminal, kept
T1 sequence (Q86TI2 whole entry): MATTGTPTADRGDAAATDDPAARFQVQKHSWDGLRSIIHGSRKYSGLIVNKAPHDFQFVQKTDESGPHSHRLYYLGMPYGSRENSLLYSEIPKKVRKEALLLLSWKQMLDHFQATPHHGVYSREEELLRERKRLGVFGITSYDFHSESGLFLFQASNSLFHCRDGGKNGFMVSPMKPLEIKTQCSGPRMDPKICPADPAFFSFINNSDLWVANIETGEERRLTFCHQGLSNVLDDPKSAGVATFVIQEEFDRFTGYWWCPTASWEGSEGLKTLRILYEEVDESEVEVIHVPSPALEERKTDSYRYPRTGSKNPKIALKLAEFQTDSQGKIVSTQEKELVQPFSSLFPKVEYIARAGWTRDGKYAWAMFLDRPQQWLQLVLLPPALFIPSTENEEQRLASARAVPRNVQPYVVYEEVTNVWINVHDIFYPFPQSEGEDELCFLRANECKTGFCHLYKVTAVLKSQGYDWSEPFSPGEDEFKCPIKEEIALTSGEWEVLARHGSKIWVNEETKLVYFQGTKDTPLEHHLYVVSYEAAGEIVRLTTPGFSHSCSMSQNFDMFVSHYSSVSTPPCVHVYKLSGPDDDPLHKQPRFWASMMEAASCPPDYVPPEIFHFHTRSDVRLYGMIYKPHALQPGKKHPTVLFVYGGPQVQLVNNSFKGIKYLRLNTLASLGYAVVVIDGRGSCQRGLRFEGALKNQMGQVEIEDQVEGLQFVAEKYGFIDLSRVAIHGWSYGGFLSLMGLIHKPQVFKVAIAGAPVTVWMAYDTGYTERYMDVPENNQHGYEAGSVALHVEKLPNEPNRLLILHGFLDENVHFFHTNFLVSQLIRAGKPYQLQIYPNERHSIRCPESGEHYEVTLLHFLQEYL
Test: SPR; biotinylated Avi-His6-tev-DPP9 immobilised on a Series S SA chip (Biacore 8K); monomeric fraction of FIIND proteins (or GST) injected, single-cycle kinetics, 78.125-5000 nM (S1213A from 39.06 nM), 10 mM Hepes pH 7.5, 150 mM NaCl, 0.5 mM TCEP, 0.05% Tween-20
Details: both partners purified
Please provide the amount together with its unit, number first.

{"binder": "NLRP1-FIIND (P1214R) (domain or fragment, human, UniProt Q9C000 1064-1376, looked up, NLRP1 FIIND domain, human, residues 1064-1376 of isoform 1, patient mutation P1214R; not shown: GST, N-terminal, cleaved) SQGDLHTKPLGTDDDFWGPTGPVATEVVDKEKNLYRVHFPVAGSYRWPNTGLCFVMREAVTVEIEFCVWDQFLGEINPQHSWMVAGPLLDIKAEPGAVEAVHLPHFVALQGGHVDTSLFQMAHFKEEGMLLEKPARVELHHIVLENPSFSRLGVLLKMIHNALRFIPVTSVVLLYHRVHPEEVTFHLYLIPSDCSIRKAIDDLEMKFQFVRIHKPPPLTPLYMGCRYTVSGSGSGMLEILPKELELCYRSPGEDQLFSEFYVGHLGSGIRLQVKDKKDETLVWEALVKPGDLMPATTLIPPARIAVPSPLDAP", "quantity_name": "Kd", "result": "3430 nM"}

// next item, Kd requested
Task item: Recorded Kd of NLRP1-FIIND (S1213A) (domain or fragment, human, UniProt Q9C000 1064-1376, looked up, NLRP1 FIIND domain, human, residues 1064-1376 of isoform 1, S1213A (no autoproteolysis); Uncleaved single chain; also called autoproteolysis-deficient NLRP1-FIIND; not shown: GST, N-terminal, cleaved) SQGDLHTKPLGTDDDFWGPTGPVATEVVDKEKNLYRVHFPVAGSYRWPNTGLCFVMREAVTVEIEFCVWDQFLGEINPQHSWMVAGPLLDIKAEPGAVEAVHLPHFVALQGGHVDTSLFQMAHFKEEGMLLEKPARVELHHIVLENPSFAPLGVLLKMIHNALRFIPVTSVVLLYHRVHPEEVTFHLYLIPSDCSIRKAIDDLEMKFQFVRIHKPPPLTPLYMGCRYTVSGSGSGMLEILPKELELCYRSPGEDQLFSEFYVGHLGSGIRLQVKDKKDETLVWEALVKPGDLMPATTLIPPARIAVPSPLDAP , please.
Reply: 1550 nM
